SYSTEM: Jak2 (UniProt O60674)
Sequence (O60674 whole entry, looked up): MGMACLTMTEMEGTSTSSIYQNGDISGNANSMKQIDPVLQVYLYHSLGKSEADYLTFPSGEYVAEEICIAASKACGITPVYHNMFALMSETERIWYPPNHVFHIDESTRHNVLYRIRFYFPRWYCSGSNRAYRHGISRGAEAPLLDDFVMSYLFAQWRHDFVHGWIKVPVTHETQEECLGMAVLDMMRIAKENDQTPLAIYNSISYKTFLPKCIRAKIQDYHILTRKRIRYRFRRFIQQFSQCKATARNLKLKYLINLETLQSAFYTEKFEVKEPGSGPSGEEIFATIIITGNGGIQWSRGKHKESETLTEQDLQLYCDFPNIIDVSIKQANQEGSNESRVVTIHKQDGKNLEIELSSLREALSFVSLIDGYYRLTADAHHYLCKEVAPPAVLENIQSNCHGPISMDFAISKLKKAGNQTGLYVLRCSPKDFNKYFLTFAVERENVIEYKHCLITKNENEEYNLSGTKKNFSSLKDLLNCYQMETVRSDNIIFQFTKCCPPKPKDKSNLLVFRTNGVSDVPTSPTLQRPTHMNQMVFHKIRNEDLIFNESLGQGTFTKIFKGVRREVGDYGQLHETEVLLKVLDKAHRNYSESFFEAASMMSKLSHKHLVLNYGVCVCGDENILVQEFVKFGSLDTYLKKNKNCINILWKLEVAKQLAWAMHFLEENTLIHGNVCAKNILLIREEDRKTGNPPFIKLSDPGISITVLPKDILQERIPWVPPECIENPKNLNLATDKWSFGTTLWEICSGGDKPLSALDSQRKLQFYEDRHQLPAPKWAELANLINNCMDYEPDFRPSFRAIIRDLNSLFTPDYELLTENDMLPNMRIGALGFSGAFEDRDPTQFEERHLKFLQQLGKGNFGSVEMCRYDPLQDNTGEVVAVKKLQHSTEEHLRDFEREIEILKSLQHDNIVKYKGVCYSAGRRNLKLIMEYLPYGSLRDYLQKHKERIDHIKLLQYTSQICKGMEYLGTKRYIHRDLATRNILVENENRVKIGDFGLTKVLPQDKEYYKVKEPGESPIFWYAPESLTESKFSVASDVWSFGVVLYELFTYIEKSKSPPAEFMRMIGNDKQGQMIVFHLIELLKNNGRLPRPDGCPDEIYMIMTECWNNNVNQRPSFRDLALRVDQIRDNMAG
MEASUREMENT DESCRIPTION: phosphorylation enrichment, bacterial display (enrichment ratio); higher = better substrate or ligand; peptides without Tyr show the background;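 note: 11-residue human phosphosite peptides and single-mutation variants displayed on the E. coli surface, counted by deep sequencing, each peptide's frequency after selection divided by its frequency in the unselected input library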;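 note: frequency after pTyr selection over input frequency; kinase dosed for 20-30% of maximal phosphorylation in three min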
REPORTED ENDPOINT: phosphorylation enrichment
# output: bare number, no unit

# sequence EEQKKYFNAVK [SCN5A_Y1494_M1498V_YF] ; its phosphorylation enrichment = 0.727

# sequence KNGSNYVVKGN [KIT_Y823_D820G] ; its phosphorylation enrichment = 0.484

# sequence QMRLRYLAAEE [CEP120_Y884] ; its phosphorylation enrichment = 1.3

# sequence LARHMYDKEYY [MET_Y1230_D1228H] ; its phosphorylation enrichment = 0.883

# sequence MEYLPYGSLRD [JAK2_Y934] ; its phosphorylation enrichment = 1.41

# sequence GDYYCYLAEVA [YWHAG_Y133_R132C] ; its phosphorylation enrichment = 6.33

# sequence PINEPYGDDMD [JUP_Y693] ; its phosphorylation enrichment = 1.89

# sequence CKPGFYNLKEK [LAMA1_Y490] ; its phosphorylation enrichment = 0.602

# sequence EVGRVYLFLQP [ITGA2B_Y360] ; its phosphorylation enrichment = 1.3

# sequence VDTFWYKFLKR [EPM2A_Y86] ; its phosphorylation enrichment = 1.05

---

For each entry below, report its phosphorylation enrichment value.
SYSTEM: Jak2 (UniProt O60674)
MEASUREMENT DESCRIPTION: phosphorylation enrichment, bacterial display (enrichment ratio); higher = better substrate or ligand; peptides without Tyr show the background
# output: bare number, no unit

# sequence ILLAGYLVMVI [SLC28A3_Y113] ; its phosphorylation enrichment = 1.06

# sequence LARHMYDKEFF [MET_Y1230_D1228H_YF] ; its phosphorylation enrichment = 0.646

# sequence KPMDTYYDSTR [DYNC2H1_Y2230] ; its phosphorylation enrichment = 0.545

---

SYSTEM: MERTK (UniProt Q12866)
Sequence (Q12866 whole entry, looked up): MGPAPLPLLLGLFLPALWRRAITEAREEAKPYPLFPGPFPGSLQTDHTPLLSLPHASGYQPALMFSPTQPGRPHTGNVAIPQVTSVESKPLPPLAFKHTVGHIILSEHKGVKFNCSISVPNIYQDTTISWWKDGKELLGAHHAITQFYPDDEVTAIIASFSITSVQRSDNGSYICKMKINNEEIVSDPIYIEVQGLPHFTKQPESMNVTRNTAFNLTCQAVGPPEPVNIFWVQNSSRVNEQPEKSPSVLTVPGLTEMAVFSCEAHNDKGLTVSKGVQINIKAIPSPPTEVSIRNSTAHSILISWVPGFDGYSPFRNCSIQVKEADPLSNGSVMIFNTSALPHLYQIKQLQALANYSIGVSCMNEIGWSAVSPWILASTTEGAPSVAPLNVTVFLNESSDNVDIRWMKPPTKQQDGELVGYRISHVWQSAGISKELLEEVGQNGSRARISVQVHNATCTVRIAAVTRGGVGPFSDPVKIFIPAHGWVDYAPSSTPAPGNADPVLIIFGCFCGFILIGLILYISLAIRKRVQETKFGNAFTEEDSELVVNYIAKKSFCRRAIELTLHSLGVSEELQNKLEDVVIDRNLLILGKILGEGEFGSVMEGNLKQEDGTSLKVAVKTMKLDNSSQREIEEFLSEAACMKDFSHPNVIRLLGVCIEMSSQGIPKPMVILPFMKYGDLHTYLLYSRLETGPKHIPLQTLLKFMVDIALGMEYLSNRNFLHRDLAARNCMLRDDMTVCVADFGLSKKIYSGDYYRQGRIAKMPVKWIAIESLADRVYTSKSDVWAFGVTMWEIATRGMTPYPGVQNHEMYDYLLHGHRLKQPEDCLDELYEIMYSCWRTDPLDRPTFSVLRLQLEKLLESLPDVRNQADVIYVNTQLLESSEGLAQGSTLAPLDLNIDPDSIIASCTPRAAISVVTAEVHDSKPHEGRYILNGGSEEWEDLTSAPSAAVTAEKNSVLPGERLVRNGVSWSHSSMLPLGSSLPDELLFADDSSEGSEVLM
MEASUREMENT DESCRIPTION: phosphorylation enrichment, bacterial display (enrichment ratio); higher = better substrate or ligand; peptides without Tyr show the background
REPORTED ENDPOINT: phosphorylation enrichment

Field phosphorylation enrichment (system: MERTK (UniProt Q12866)) for entry DRIVNYSRASV [ATP7A_Y1459_I1464V] = 0.574

Field phosphorylation enrichment (system: MERTK (UniProt Q12866)) for entry PSFSEYASVQV [SIRPA_Y496] = 0.474

Field phosphorylation enrichment (system: MERTK (UniProt Q12866)) for entry LYEDRYLLGPS [ASS1_Y87_T91P] = 0.899

Field phosphorylation enrichment (system: MERTK (UniProt Q12866)) for entry SLIDGYFRLTE [JAK2_Y372_A377E_YF] = 0.542

Field phosphorylation enrichment (system: MERTK (UniProt Q12866)) for entry EGDGVYTLNDE [HP_Y125_N129D] = 0.482

Field phosphorylation enrichment (system: MERTK (UniProt Q12866)) for entry RQGKDYIGAIP [KDR_Y951_V952I] = 0.813

Field phosphorylation enrichment (system: MERTK (UniProt Q12866)) for entry KLPYPYDDPFS [GPX2_Y127] = 0.515

Field phosphorylation enrichment (system: MERTK (UniProt Q12866)) for entry CTTIHYYYMCN [TP53_Y234_N235Y] = 0.767

Field phosphorylation enrichment (system: MERTK (UniProt Q12866)) for entry PSTFRYERGSR [INPPL1_Y663_P659S_YF] = 0.366

Field phosphorylation enrichment (system: MERTK (UniProt Q12866)) for entry NSIGNYYKPWF [DHCR24_Y299] = 8.27

Field phosphorylation enrichment (system: MERTK (UniProt Q12866)) for entry GFRVFYTPDSR [PTPRF_Y451_YF] = 0.37

Field phosphorylation enrichment (system: MERTK (UniProt Q12866)) for entry VVQGIYGYHHH [UFSP2_Y285_Y290H] = 10.3

Field phosphorylation enrichment (system: MERTK (UniProt Q12866)) for entry RGKLFYQEVPA [METTL11B_Y76_A72G] = 3.21

Field phosphorylation enrichment (system: MERTK (UniProt Q12866)) for entry DYSLKYATDIP [APC_Y1183] = 0.5

Field phosphorylation enrichment (system: MERTK (UniProt Q12866)) for entry VQSASYLNDCL [MCM3AP_Y864_A867D] = 0.447

Field phosphorylation enrichment (system: MERTK (UniProt Q12866)) for entry RAMPVYEKAEH [TP63_Y231_K232E] = 0.453

Field phosphorylation enrichment (system: MERTK (UniProt Q12866)) for entry ERIEFYELDKK [PMM2_Y145] = 0.393

Field phosphorylation enrichment (system: MERTK (UniProt Q12866)) for entry EIRTQYEVMAS [GFAP_Y242_A244V] = 0.378

Field phosphorylation enrichment (system: MERTK (UniProt Q12866)) for entry EEQKKYFNAVK [SCN5A_Y1494_M1498V_YF] = 0.482

Field phosphorylation enrichment (system: MERTK (UniProt Q12866)) for entry DRPASYLDKVR [KRT17_Y98_L95P] = 0.51

Field phosphorylation enrichment (system: MERTK (UniProt Q12866)) for entry IVEYAYNDKAI [PUM3_Y259] = 0.397

Field phosphorylation enrichment (system: MERTK (UniProt Q12866)) for entry IDSTPYGQWYE [RPS8_Y109_R110G] = 0.526

Field phosphorylation enrichment (system: MERTK (UniProt Q12866)) for entry CDDGKYVYVVT [RPS6KA3_Y488_Y483C] = 0.525

Field phosphorylation enrichment (system: MERTK (UniProt Q12866)) for entry EDKFMYFEFPQ [PTEN_Y240] = 1.68

Field phosphorylation enrichment (system: MERTK (UniProt Q12866)) for entry PINEPYGDDMD [JUP_Y693] = 0.919

Field phosphorylation enrichment (system: MERTK (UniProt Q12866)) for entry CTNELYMMMRD [FGFR1_Y730] = 2

Field phosphorylation enrichment (system: MERTK (UniProt Q12866)) for entry QQLQGYVPSNY [FRK_Y99_I100V] = 0.396

Field phosphorylation enrichment (system: MERTK (UniProt Q12866)) for entry PLDGEYFTLQV [TP53_Y327_I332V] = 0.494

Field phosphorylation enrichment (system: MERTK (UniProt Q12866)) for entry FQQLFYLLQIN [IQGAP2_Y890_T894I_YF] = 0.611

Field phosphorylation enrichment (system: MERTK (UniProt Q12866)) for entry SPGGDYAAMGA [ERBB3_Y1276_G1271S] = 0.476

Field phosphorylation enrichment (system: MERTK (UniProt Q12866)) for entry RMGNLYDIDED [GRIN2A_Y1246] = 0.606

Field phosphorylation enrichment (system: MERTK (UniProt Q12866)) for entry CLEKEYFDQHF [NPC1_Y394_R389C] = 0.406

Field phosphorylation enrichment (system: MERTK (UniProt Q12866)) for entry VNFGAYINDFK [GLB1_Y488_YF] = 0.352

Field phosphorylation enrichment (system: MERTK (UniProt Q12866)) for entry DDSNPYINVKL [MTHFD1_Y52_L51P] = 0.526

Field phosphorylation enrichment (system: MERTK (UniProt Q12866)) for entry VGSEDYGRDLT [SPTAN1_Y1792] = 0.456

Field phosphorylation enrichment (system: MERTK (UniProt Q12866)) for entry CTLLPYFSAPV [DGKE_Y269_R273P_YF] = 0.453

Field phosphorylation enrichment (system: MERTK (UniProt Q12866)) for entry NIFSFYLSRDP [CTSD_Y232] = 0.333

Field phosphorylation enrichment (system: MERTK (UniProt Q12866)) for entry LRFDVYGGENE [STOX1_Y610_E608D_YF] = 0.405

Field phosphorylation enrichment (system: MERTK (UniProt Q12866)) for entry DRKRQYELLKL [KIF4B_Y684] = 0.4

Field phosphorylation enrichment (system: MERTK (UniProt Q12866)) for entry ARGMEYLAEQK [MST1R_Y1198_G1195S] = 0.435

Field phosphorylation enrichment (system: MERTK (UniProt Q12866)) for entry SADIAYNFRHG [PAH_Y166_F161S_YF] = 0.374

Field phosphorylation enrichment (system: MERTK (UniProt Q12866)) for entry LPHVIYCRLWC [SMAD2_Y128_R133C] = 2.98

Field phosphorylation enrichment (system: MERTK (UniProt Q12866)) for entry QAPPVYLDVLG [NTRK1_Y791] = 0.901

Field phosphorylation enrichment (system: MERTK (UniProt Q12866)) for entry LVTCSYLLGNS [LMNA_Y646_R644C] = 0.99

Field phosphorylation enrichment (system: MERTK (UniProt Q12866)) for entry GLAKGYIDPET [CSNK1G2_Y195_E194G] = 0.472

Field phosphorylation enrichment (system: MERTK (UniProt Q12866)) for entry PYRQWYESHYA [RPS8_Y113] = 1.86

Field phosphorylation enrichment (system: MERTK (UniProt Q12866)) for entry IVAREYYSDAD [CAMK2A_Y106_E109D] = 0.41

Field phosphorylation enrichment (system: MERTK (UniProt Q12866)) for entry RPSRWYQFPVA [ANOS1_Y259_R262P] = 7.23

Field phosphorylation enrichment (system: MERTK (UniProt Q12866)) for entry HFECKYVINAI [MAOA_Y268_YF] = 0.529

Field phosphorylation enrichment (system: MERTK (UniProt Q12866)) for entry PSGPMYRGAVP [ASAH1_Y43_T42M] = 0.483

Field phosphorylation enrichment (system: MERTK (UniProt Q12866)) for entry KVIDMYLMGCF [GABRB2_Y308_A304V] = 0.429
